ASSAYED TARGET: Mitogen-activated protein kinase 1 (Homo sapiens)
Sequence (P28482 whole entry): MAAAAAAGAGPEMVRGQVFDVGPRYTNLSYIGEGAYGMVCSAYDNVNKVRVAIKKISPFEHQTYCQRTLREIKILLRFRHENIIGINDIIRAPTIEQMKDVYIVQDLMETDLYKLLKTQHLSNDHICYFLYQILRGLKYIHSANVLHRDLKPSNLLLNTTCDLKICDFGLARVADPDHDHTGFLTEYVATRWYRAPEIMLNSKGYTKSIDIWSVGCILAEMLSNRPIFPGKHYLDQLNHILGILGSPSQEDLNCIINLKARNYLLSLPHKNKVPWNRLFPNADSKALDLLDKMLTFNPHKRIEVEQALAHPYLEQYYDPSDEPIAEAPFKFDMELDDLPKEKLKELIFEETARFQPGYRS
ASSAY NOTES: DRUGMATRIX: Protein Serine/Threonine Kinase, ERK2 enzyme inhibition (substrate: Myelin Basic Protein)
Set-up: species or system Escherichia coli
EXPERIMENTAL CONTEXT: Not Active = under 50% inhibition at 10 µM; read-out: IC50
MEASUREMENT KIND: pIC50
// field semantics: pIC50 = negative decimal log of concentration (mol/L)

Request: Param item = Cc1c(C)c2c(c(C)c1O)CCC(C)(COc1ccc(CC3SC(=O)NC3=O)cc1)O2 (centres undefined) [TROGLITAZONE] ; retrieve measured pIC50.
Result: 5.91

Request: Param item = O=c1oc2ccccc2c(O)c1Cc1c(O)c2ccccc2oc1=O [DICUMAROL] ; retrieve measured pIC50.
Result: 5.35

Request: Param item = Cc1cc(C(C#N)c2ccc(Cl)cc2)c(Cl)cc1NC(=O)c1cc(I)cc(I)c1O (centres undefined) [CLOSANTEL] ; retrieve measured pIC50.
Result: 5.85

Request: Param item = CSc1ccc(/C=C2/C(C)=C(CC(=O)O)c3cc(F)ccc32)cc1 [SULINDAC SULFIDE] ; retrieve measured pIC50.
Result: 5.96

* * *

ASSAYED TARGET: 5-hydroxytryptamine receptor 2B (Homo sapiens); further: in other assays of this panel Not Active means under 50% inhibition at 10 µM
Sequence (P41595 whole entry): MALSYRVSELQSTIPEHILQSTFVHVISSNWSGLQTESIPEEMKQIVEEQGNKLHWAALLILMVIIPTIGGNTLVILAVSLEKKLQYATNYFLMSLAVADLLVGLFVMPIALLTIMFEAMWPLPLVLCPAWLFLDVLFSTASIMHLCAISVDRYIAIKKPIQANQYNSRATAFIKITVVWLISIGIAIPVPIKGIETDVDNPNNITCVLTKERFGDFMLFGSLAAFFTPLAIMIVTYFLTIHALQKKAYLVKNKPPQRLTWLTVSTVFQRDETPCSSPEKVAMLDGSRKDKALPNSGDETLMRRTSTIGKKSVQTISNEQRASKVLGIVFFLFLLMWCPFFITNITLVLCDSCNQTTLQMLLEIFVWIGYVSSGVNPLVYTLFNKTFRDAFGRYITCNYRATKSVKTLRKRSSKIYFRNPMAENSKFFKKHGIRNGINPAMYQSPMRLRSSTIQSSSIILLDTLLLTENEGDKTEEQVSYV
Format: cell membranes, CHO-K1, Membrane
EXPERIMENTAL CONTEXT: read-out: IC50
Define the label as MET when IC50 is strictly less than 300 nM and as NOT MET in all remaining cases.

Request: Would you kindly verify if IC50 of CCCN1C[C@H](CSC)C[C@@H]2c3cccc4[nH]cc(c34)C[C@H]21 [PERGOLIDE] is strictly less than 300 nM?
Result: MET

Request: Would you kindly verify if IC50 of `c1ccc(Nc2ccc(Nc3ccccc3)cc2)cc1` is strictly less than 300 nM?
Result: MET

Request: Would you kindly verify if IC50 of Cc1c(C)c2c(c(C)c1O)CCC(C)(COc1ccc(CC3SC(=O)NC3=O)cc1)O2 (stereo not drawn) [TROGLITAZONE] is strictly less than 300 nM?
Result: NOT MET

Request: Would you kindly verify if IC50 of Cc1cccc(N(C)C(=S)Oc2ccc3ccccc3c2)c1 [TOLNAFTATE] is strictly less than 300 nM?
Result: NOT MET

Request: Would you kindly verify if IC50 of CC(C)[C@@]1(NC(=O)[C@@H]2C[C@@H]3c4cccc5[nH]cc(c45)C[C@H]3N(C)C2)O[C@@]2(O)[C@@H]3CCCN3C(=O)[C@H](Cc3ccccc3)N2C1=O.CS(=O)(=O)O [DIHYDROERGOCRISTINE MESYLATE] is strictly less than 300 nM?
Result: MET

Request: Would you kindly verify if IC50 of CN(C)CCCN1c2ccccc2Sc2ccccc21 [PROMAZINE] is strictly less than 300 nM?
Result: NOT MET

Request: Would you kindly verify if IC50 of O=C(CCCN1CC=C(n2c(=O)[nH]c3ccccc32)CC1)c1ccc(F)cc1 [DROPERIDOL] is strictly less than 300 nM?
Result: NOT MET

Request: Would you kindly verify if IC50 of CC(C)[C@H]1C(=O)N2CCC[C@H]2[C@]2(O)O[C@](NC(=O)[C@@H]3C=C4c5cccc6[nH]cc(c56)C[C@H]4N(C)C3)(C(C)C)C(=O)N12 [ERGOCORNINE] is strictly less than 300 nM?
Result: MET

Hello, the source for this data is ChEMBL document CHEMBL1909046, in case you need it.
